study.target: T1, His-human LIGHT (human)
T1 construct: also called His-huLIGHT; free LIGHT
T1 chain: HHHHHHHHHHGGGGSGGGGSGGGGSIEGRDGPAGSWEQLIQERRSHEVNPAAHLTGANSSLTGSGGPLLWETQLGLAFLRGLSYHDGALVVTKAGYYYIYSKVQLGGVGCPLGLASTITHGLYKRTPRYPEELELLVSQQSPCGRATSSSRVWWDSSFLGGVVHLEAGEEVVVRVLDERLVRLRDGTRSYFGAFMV
assay.overview: ELISA, His-huLIGHT coated
EC50 by entry:
Give the value, in units of pM, as a plain number.

Field: example entries. Status: answers known.
[
  {
    "binder": "hum_LT-m85-7 (antibody, human IgG4, V domains shown, humanized from LT-m85) VH: QVQLVQSGAEVKKPGASVKVSCKASGYTFTSYNVHWVRQAPGQGLEWIGAVYPGNGDTSYNQKFKGRATLTADKSTSTVYMELSSLRSEDTAVYYCARGSYYYTSSYFDHWGQGTLVTVSS VL: DIVLTQSPDSLAVSLGERATINCKASQSVDFDGDSYMNWYQQKPGQPPKLLIYTASNLESGIPDRFSGSGSGTDFTLTISSLQAEDVAVYYCQQSYEDPFTFGQGTKVEIK",
    "assay.value": 5.42
  },
  {
    "binder": "hum_LT-m85-4 (antibody, human IgG4, V domains shown, humanized from LT-m85) VH: QVQLVQSGAEVKKPGASVKVSCKASGYTFTSYNVHWVRQAPGQGLEWIGAVYPGNGDTSYNQKFKGRATLTADKSTSTAYMELSSLRSEDTAVYYCARGSYYYTSSYFDHWGQGTLVTVSS VL: EIVMTQSPATLSVSPGERATLSCKASQSVDFDGDSYMNWYQQKPGQAPRLLIYTASNLESGIPARFSGSGSGTEFTLTISSLQSEDFAVYYCQQSYEDPFTFGQGTKLEIK",
    "assay.value": 12.7
  },
  {
    "binder": "hum_LT-m85-8 (antibody, human IgG4, V domains shown, humanized from LT-m85) VH: QVQLVQSGAEVKKPGASVKVSCKASGYTFTSYNVHWVRQAPGQGLEWIGAVYPGNGDTSYNQKFKGRATLTADKSTSTAYMELSSLRSEDTAVYYCARGSYYYTSSYFDHWGQGTLVTVSS VL: DIVMTQSPDSLAVSLGERATINCKASQSVDFDGDSYMNWYQQKPGQPPKLLIYTASNLESGVPDRFSGSGSGTDFTLTISSLQAEDVAVYYCQQSYEDPFTFGQGTKVEIK",
    "assay.value": 9.51
  },
  {
    "binder": "hum_LT-m85-1 (antibody, human IgG4, V domains shown, humanized from LT-m85) VH: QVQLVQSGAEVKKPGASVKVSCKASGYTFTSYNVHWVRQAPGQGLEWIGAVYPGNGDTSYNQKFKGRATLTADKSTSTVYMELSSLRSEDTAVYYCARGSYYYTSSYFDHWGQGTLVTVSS VL: EIVLTQSPATLSVSPGERATLSCKASQSVDFDGDSYMNWYQQKPGQPPRLLIYTASNLESGIPARFSGSGSGTEFTLTISSLQSEDFAVYYCQQSYEDPFTFGQGTKLEIK",
    "assay.value": 12.3
  },
  {
    "binder": "hum_LT-m85-5 (antibody, human IgG4, V domains shown, humanized from LT-m85) VH: QVQLVQSGAEVKKPGASVKVSCKASGYTFTSYNVHWVRQAPGQGLEWIGAVYPGNGDTSYNQKFKGRATLTADKSTSTAYMELSSLRSEDTAVYYCARGSYYYTSSYFDHWGQGTLVTVSS VL: DIVLTQSPDSLAVSLGERATINCKASQSVDFDGDSYMNWYQQKPGQPPKLLIYTASNLESGIPDRFSGSGSGTDFTLTISSLQAEDVAVYYCQQSYEDPFTFGQGTKVEIK",
    "assay.value": 6.1
  }
]

**Query** Tell me the measured EC50 of hum_LT-m85-6 (antibody, human IgG4, V domains shown, humanized from LT-m85) VH: QVQLVQSGAEVKKPGASVKVSCKASGYTFTSYNVHWVRQAPGQGLEWMGAVYPGNGDTSYNQKFKGRATLTADKSTSTAYMELSSLRSEDTAVYYCARGSYYYTSSYFDHWGQGTLVTVSS VL: DIVLTQSPDSLAVSLGERATINCKASQSVDFDGDSYMNWYQQKPGQPPKLLIYTASNLESGIPDRFSGSGSGTDFTLTISSLQAEDVAVYYCQQSYEDPFTFGQGTKVEIK , please.
**Result** 4.79

**Query** And the next one, hum_LT-m85-9 (antibody, human IgG4, V domains shown, humanized from LT-m85) VH: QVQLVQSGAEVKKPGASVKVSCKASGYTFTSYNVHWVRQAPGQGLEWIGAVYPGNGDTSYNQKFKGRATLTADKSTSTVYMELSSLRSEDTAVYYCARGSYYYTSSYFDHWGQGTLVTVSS VL: DIVMTQSPDSLAVSLGERATINCKASQSVDFDGDSYMNWYQQKPGQPPKLLIYTASNLESGVPDRFSGSGSGTDFTLTISSLQAEDVAVYYCQQSYEDPFTFGQGTKVEIK ?
**Result** 2

**Query** And the next one, hum_LT-m85-3 (antibody, human IgG4, V domains shown, humanized from LT-m85) VH: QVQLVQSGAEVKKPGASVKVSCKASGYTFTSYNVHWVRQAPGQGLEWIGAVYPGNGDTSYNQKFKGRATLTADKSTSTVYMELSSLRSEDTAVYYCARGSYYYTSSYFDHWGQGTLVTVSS VL: EIVMTQSPATLSVSPGERATLSCKASQSVDFDGDSYMNWYQQKPGQPPRLLIYTASNLESGIPARFSGSGSGTEFTLTISSLQSEDFAVYYCQQSYEDPFTFGQGTKLEIK ?
**Result** 8.69

**Query** And the next one, hum_LT-m85-2 (antibody, human IgG4, V domains shown, humanized from LT-m85) VH: QVQLVQSGAEVKKPGASVKVSCKASGYTFTSYNVHWVRQAPGQGLEWMGAVYPGNGDTSYNQKFKGRATLTADKSTSTAYMELSSLRSEDTAVYYCARGSYYYTSSYFDHWGQGTLVTVSS VL: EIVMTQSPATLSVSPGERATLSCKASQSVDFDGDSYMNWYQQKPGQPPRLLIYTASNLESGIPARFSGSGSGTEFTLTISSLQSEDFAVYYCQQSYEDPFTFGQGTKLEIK ?
**Result** 13.1
